assay: restored growth of temperature-sensitive Mot1-301 yeast – S. cerevisiae, ATP luminescence, 38.5C, SUMOylation pathway inhibitor project, primary screen (AID 2716);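 further: OY570 slx delta 5 strain wells were the positive control but not used for scaling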; details: S. cerevisiae Mot1-301 growth rescue, at 18.8 µM, active compounds read high, percent above DMSO median, 100 means doubled
Hit rate of the full screen: of about 320,000 compounds, about 3,300 (1%) were called active. The sample holds actives, similar compounds and a random draw of the others, so the mix is not that of the screen.
Property: growth rescue (%)
# output: bare number, implied unit %

What does the data say about its growth rescue? Entry: Cc1cccn2c(=O)c3cc(C(=O)NCC4CCCO4)c(=N)n(Cc4ccc(F)cc4)c3nc12 (configuration not stated)
-5.43

Please do the same for `O=S(=O)(NCCc1ccc(F)cc1)c1cccc2cccnc12` as well.
-5.12

Try this compound too: `Cc1ccc(C)c(S(=O)(=O)N2CCN(c3ncnc4sccc34)CC2)c1`
-2.33

Try this compound too: Cc1ccccc1NC(=O)C(C)OC(=O)CCC(=O)N(CC(C)C)c1c(N)n(CC(C)C)c(=O)[nH]c1=O (configuration not stated)
-16.2

Now consider `COc1ccc(/C=N/OCc2ccccc2C#N)c(OC)c1` and answer again.
31.4

// next record `O=C(O)Cn1c(Cc2ccccc2)nc2ccccc21`
-4.16

Lookup O=C(COc1ccc(Cl)cc1)NCc1nnc(SCC(=O)NCC2CCCO2)o1 (configuration not stated)
1.67

----------
experiment: restored growth of temperature-sensitive Mot1-301 yeast – S. cerevisiae, ATP luminescence, 38.5C, SUMOylation pathway inhibitor project, primary screen (AID 2716);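 further: OY570 slx delta 5 strain wells were the positive control but not used for scaling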; conditions: S. cerevisiae Mot1-301 growth rescue, at 18.8 µM, percent above DMSO median, 100 means doubled
Hit rate of the full screen: of about 320,000 compounds, about 3,300 (1%) were called active.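 The calls were made as follows: active = every valid replicate shows activation above 250% relative to neutral control wells; inactive = the rest, any valid replicate at or below 250%.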 The full list was thinned out, with actives kept by preference.
I would appreciate it if you answered using one of these outcomes: 1 = active, -1 = inactive

Per the assay record, what outcome was assigned to `Cc1csc(NC(=S)Nc2cccc(Cl)c2)n1` ?
1

How about this compound: `COc1cc(NC(=O)C2=CC(c3ccc(C)cc3)=NS(=O)(=O)N2C)cc(OC)c1OC`
-1

Try this compound next: `COc1ccc(NC(=O)C2=CC(c3ccc(OC)c(OC)c3)=NS(=O)(=O)N2C)cc1`
-1

----------
assay: restored growth of temperature-sensitive Mot1-301 yeast – S. cerevisiae, ATP luminescence, 38.5C, SUMOylation pathway inhibitor project, primary screen (AID 2716);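 further: OY570 slx delta 5 strain wells were the positive control but not used for scaling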; conditions: S. cerevisiae Mot1-301 growth rescue, at 18.8 µM, percent above DMSO median, 100 means doubled
Out of some 320,000 compounds screened, about 3,300 (1%) were called active.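 The calls were made as follows: active = every valid replicate shows activation above 250% relative to neutral control wells; inactive = the rest, any valid replicate at or below 250%.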 This is one part of a sample in which actives are shown more often than they occur.
Give one outcome, nothing more. List: yes (1) for active, no (0) for inactive

Record lookup: outcome of this test for `O=S1(=O)CC/C(=N\Nc2ccc(F)cc2)c2ccsc21` ?
yes (1)

And Cc1cc(C)cc(C(=O)NC2C(=O)N3C(C(=O)O)=C(CSc4nnc(C)s4)CSC23)c1 (stereo not given) ?
no (0)

One more compound: CCC(C)[C@H]1COCCS(=O)(=O)N1Cc1ccc(C)cc1 (stereo not given in full)
yes (1)

Now consider Cc1c(Cl)c([N+](=O)[O-])nn1CCCC(=O)NC(C)c1ccccc1 (stereo not given) .
no (0)

Same read-out for `O=C(NNS(=O)(=O)c1c(F)cc(F)c(Cl)c1F)C12CC3CC(CC(C3)C1)C2` ?
yes (1)

Please give the result for Cc1ccc(N2C(=O)CC(Sc3ncn[nH]3)C2=O)cc1 (stereo not given) too.
yes (1)

And for `COc1ccc(OC)c2c(N)c(C#N)c(C(F)(F)C(F)(F)F)nc12` ?
yes (1)

Again, but for `CCc1c(C)nc(N2CCN(Cc3ccccc3)CC2)[nH]c1=O`
yes (1)

And what about the compound `O=C(OCC(=O)N1CCOCC1)c1ccc(N2CCOCC2)c([N+](=O)[O-])c1` ?
no (0)

Here is the next compound: `O=C(/C=C/c1ccco1)NC(=S)N1CCCCC1`
no (0)

Would you kindly repeat that for `CCN(CC)C(=O)CSC(Nc1cccc(F)c1)=C(C#N)C#N` ?
yes (1)

Then `O=C(O)c1c(NC(=O)N2CCCC2)sc2c1CCCC2` ?
no (0)

Follow-up item: `CC(=O)N1CCN(S(=O)(=O)c2c(F)cc(F)c(Cl)c2F)CC1`
no (0)

One more compound: `Cc1cc(Nc2ccc(N3CCOCC3)cc2)c2cccc(C)c2n1`
no (0)

What do we get for `COc1ccc(S(=O)(=O)N2CCCCCC2)cc1NC(=O)Cc1ccc(OC)c(OC)c1` ?
no (0)

Query COc1ccc(N2C(=O)CC(Sc3n[nH]c(-c4ccc(C)cc4)n3)C2=O)cc1 (stereo not given) next
no (0)

How about `S=C(Nc1ccc(Br)cc1Cl)N1CCC2(CC1)OCCO2` ?
no (0)

Item: `Cc1ccc(S(=O)(=O)NC(=O)N2CCCN(Cc3ccc(F)cc3)CC2)cc1`
no (0)

Repeat for the following compound: COc1ccc(F)cc1S(=O)(=O)NCC(c1ccc2c(c1)OCO2)N1CCN(C)CC1 (stereo not given)
no (0)

Same for `Cc1ccc2c(c1)N(CC(=O)N1CCOCC1)C(=O)CO2`
no (0)

Now try `COC(=O)c1ccc(CSc2ccc3nnc(-c4ccccc4)n3n2)o1` .
no (0)

How about `O=C(c1ccc(N2CCOCC2)c([N+](=O)[O-])c1)N1CCN(c2ccccc2F)CC1` ?
no (0)

Likewise for COc1c(C)cc(C(=O)C2CCCN(S(=O)(=O)c3c(C)noc3C)C2)cc1C (stereo not given) ?
no (0)

Also check COc1ccc(C)cc1N(C(=O)Cn1nnc(-c2ccc(C)o2)n1)C(C(=O)NC1CCCC1)c1ccncc1 (stereo not given)
no (0)

What about this compound? `CCOC(=O)COc1ccc([N+](=O)[O-])cc1`
no (0)
